meta.source: patent US10421756B2

Biological target: UniProt Q92769
Test: Reporter displacement assay (HDAC2)
Type: binding
Threshold 2000 min: residence time strictly smaller gives YES, otherwise NO.

• CNC(=O)N1CCc2nc(C(=O)Nc3cc(-c4ccc(F)cc4)ccc3N)sc2C1 = NO
• Nc1ccc(-c2ccc(F)cc2)cc1NC(=O)N1CC2(CCNCC2)C1 = YES
• CC(C)(C)OC(=O)N1CCC2CN(C(=O)Nc3cc(-c4ccc(F)cc4)ccc3N)CC2C1 (centres unmarked) = YES
• Nc1ccc(-c2ccc(F)cc2)cc1NC(=O)N1CC2CCC(C1)N2C=O = YES
• CCOC(=O)N1CC2CN(C(=O)Nc3cc(-c4ccc(F)cc4)ccc3N)CC2C1 (centres unmarked) = YES
• COc1ccc(-c2ccc(N)c(NC(=O)N3Cc4ccncc4C3)c2)cc1 = NO
• Nc1ccc(-c2ccc(F)cc2)cc1NC(=O)N1CC2(CCCCO2)C1 = YES
• Cn1cc(-c2ccc(N)c(NC(=O)N3Cc4ccncc4C3)c2)cn1 = YES

====

Below, each entry is listed with its recorded residence time.
Target: HDAC2 (Homo sapiens (Human))
Sequence (Q92769 whole entry): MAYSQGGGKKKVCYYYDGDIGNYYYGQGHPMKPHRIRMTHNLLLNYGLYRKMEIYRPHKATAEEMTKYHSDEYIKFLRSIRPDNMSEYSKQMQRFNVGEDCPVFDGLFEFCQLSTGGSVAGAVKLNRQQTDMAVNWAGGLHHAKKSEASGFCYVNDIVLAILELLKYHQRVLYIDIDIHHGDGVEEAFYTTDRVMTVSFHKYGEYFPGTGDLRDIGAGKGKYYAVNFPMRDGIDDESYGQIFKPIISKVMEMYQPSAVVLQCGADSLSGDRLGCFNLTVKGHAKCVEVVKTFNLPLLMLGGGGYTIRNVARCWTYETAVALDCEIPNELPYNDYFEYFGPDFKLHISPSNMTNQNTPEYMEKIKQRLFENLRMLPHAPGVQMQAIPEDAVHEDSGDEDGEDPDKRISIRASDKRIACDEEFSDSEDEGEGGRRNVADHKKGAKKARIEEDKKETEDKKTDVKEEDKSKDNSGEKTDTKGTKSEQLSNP
Assay: Reporter displacement assay (HDAC2)
Format: binding
MEASURED QUANTITY: residence time (min)

• CC(C)(C)OC(=O)N1CCC2(CC1)CN(C(=O)Nc1cc(-c3ccc(F)cc3)ccc1N)C2 = 521
• Nc1ccc(-c2ccc(F)cc2)cc1NC(=O)N1CC2CN(C3COC3)CC2C1 (stereo not drawn) = 2620
• CC(C)COC(=O)N1CC2CN(C(=O)Nc3cc(-c4ccc(F)cc4)ccc3N)CC2C1 (stereo not drawn) = 1360

====

Target: HDAC1 (Homo sapiens (Human))
Sequence (Q13547 whole entry): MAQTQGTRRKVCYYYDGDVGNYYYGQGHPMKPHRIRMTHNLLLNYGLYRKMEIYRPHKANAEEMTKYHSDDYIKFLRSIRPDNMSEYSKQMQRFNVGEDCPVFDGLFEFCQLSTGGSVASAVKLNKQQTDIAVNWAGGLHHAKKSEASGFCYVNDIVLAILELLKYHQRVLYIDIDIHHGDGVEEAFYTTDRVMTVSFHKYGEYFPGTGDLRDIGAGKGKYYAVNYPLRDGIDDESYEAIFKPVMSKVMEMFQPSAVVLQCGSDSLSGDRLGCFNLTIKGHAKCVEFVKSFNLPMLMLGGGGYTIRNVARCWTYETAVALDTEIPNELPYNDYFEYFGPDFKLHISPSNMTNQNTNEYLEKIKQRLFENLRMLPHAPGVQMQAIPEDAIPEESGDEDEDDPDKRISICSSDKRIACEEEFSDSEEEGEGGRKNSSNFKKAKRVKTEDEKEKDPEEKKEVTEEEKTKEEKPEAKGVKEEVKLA
Assay: Reporter displacement assay (HDAC1)
Assay type: binding
MEASURED QUANTITY: residence time (min)

* Nc1ccc(-c2ccc(Cl)cc2)cc1NC(=O)N1Cc2ccncc2C1 [Compound 130] | 1080
* Nc1ccc(-c2ccc(F)cc2)cc1NC(=O)N1CC2CN(C(=O)C3CC3)CC2C1 (stereo not drawn) [Compound 125] | 788
* Nc1ccc(-c2ccc(F)cc2)cc1NC(=O)N1CCC2(CC1)CCN(C1COC1)C2 [Compound 164] | 1430
* Nc1ccc(-c2ccc(F)c(F)c2)cc1NC(=O)N1Cc2nccnc2C1 [Compound 137] | 552
* Nc1ccc(-c2ccc(F)cc2F)cc1NC(=O)N1Cc2ccncc2C1 [Compound 133] | 1300
* Nc1ccc(-c2ccc(F)cc2)cc1NC(=O)N1CC2CNCC2C1 (stereo not drawn) [Compound 114] | 127
* Nc1ccc(-c2ccc(F)cc2)cc1NC(=O)c1nc2c(s1)CNCC2 [Compound 147] | 1340
* Nc1ccc(-c2ccc(C(F)(F)F)cc2)cc1NC(=O)N1Cc2ccncc2C1 [Compound 140] | 34
* Nc1ccc(-c2ccc(F)cc2)cc1NC(=O)N1Cc2nccnc2C1 [Compound 119] | 1500

====

Target: HDAC1 (Homo sapiens (Human))
Test: Reporter displacement assay (HDAC1)
Conditions: reporter probe displacement, Cheng Prusoff
pKd: −log10 of the molar value.
MEASURED QUANTITY: pKd

• Nc1ccc(-c2ccc(F)c(F)c2)cc1NC(=O)c1cn2c(n1)CNCC2 = 6.30 to 7.00
• N#CC1CCc2nc(C(=O)Nc3cc(-c4ccc(F)cc4)ccc3N)cn2C1 (stereo not drawn) = > 7.00
• Nc1ccc(-c2ccc(F)cc2)cc1NC(=O)N1CCC2(CCNC2)CC1 = > 7.00
• Nc1ccc(-c2ccncc2)cc1NC(=O)c1nc2c(s1)CCNC2 = > 7.00
• Nc1ccc(-c2cccnc2)cc1NC(=O)N1Cc2ccncc2C1 = 6.30 to 7.00
• Nc1ccc(-c2ccc(F)c(F)c2)cc1NC(=O)N1Cc2ccncc2C1 = 6.30 to 7.00
• Nc1ccc(-c2ccncc2)cc1NC(=O)N1CCC2(CCN(CCF)C2)CC1 = 5.30 to 6.30
• CC(C)(C)OC(=O)N1CC2CC1CN2C(=O)Nc1cc(-c2ccncc2)ccc1N (stereo not drawn) = < 5.30
• Nc1ccc(-c2ccc(F)cc2)cc1NC(=O)N1CC2(CCCCO2)C1 = 6.30 to 7.00
• NCC(=O)N1CC2CN(C(=O)Nc3cc(-c4ccc(F)cc4)ccc3N)CC2C1 (stereo not drawn) = 6.30 to 7.00
• CC(=O)N1C2CCC1CN(C(=O)Nc1cc(-c3ccc(F)cc3)ccc1N)C2 = < 5.30
• Nc1ccc(-c2ccc(F)cc2)cc1NC(=O)N1CC2CCC(C1)N2 = < 5.30
• Nc1ccc(-c2ccncc2)cc1NC(=O)N1Cc2nccnc2C1 = > 7.00
• CC(C)(C)OC(=O)N1C2CCC1CN(C(=O)Nc1cc(-c3ccncc3)ccc1N)C2 [Compound 106] = < 5.30
• Nc1ccc(-c2ccc(F)cc2)cc1NC(=O)N1CCC2(CC1)CCN(C1COC1)C2 = 6.30 to 7.00
• CN1CC2CN(C(=O)Nc3cc(-c4ccncc4)ccc3N)CC2C1=O (stereo not drawn) = 5.30 to 6.30
• Nc1ccc(-c2ccc(F)cc2)cc1NC(=O)N1CC2CN(C3COC3)CC2C1 (stereo not drawn) = > 7.00
• COCCN1CCC2(CCN(C(=O)Nc3cc(-c4ccc(F)cc4)ccc3N)CC2)C1 = 6.30 to 7.00
